The origin of these recorded values is PubChem BioAssay (NCATS).

experimental protocol: P-glycoprotein substrates identified in KB-8-5-11 adenocarcinoma cell line, qHTS therapeutic library screen (AID 1346987); further: nearly all actives have a fitted effect of over 65% in size
study conditions: KB-8-5-11 (P-gp overexpressing) viability, CellTiter-Glo, 72 h; series mostly up to 44.5 µM
Method: The ATP-binding cassette transporters P-glycoprotein (P-gp) is known to limit brain penetration of many chemotherapy drugs. […] All cell lines were plated into 1536-well plates at 500 cells/well in 5 uL media. […] CellTiter-Glo reagent (Promega) was dispensed into the wells, incubated for 5 min and luminescence was read on a ViewLux instrument (Perkin-Elmer). […]
Inconclusive results are not listed. Activity calls are given as the source filed them. The call rests on the fitted dose curve; in most records, active means well fitted inhibition curve with a large enough effect; inconclusive means small, poorly fitted or top-dose-only effect; inactive means flat fitted curve, though single readings scatter. *1 amine or outer side, *2 acyl side, *3 side chain or, on linkers, in order; H or OH if unused. Where a SMILES comes first, the peptide text is derived from it. Bridges are numbered along the chain shown (N, C = ends). [ ]: non-standard residue; d: D form. The star is where a group is joined. X5 = NC1=N[C@@H]([C@H](N[*:1])C(=O)[*:2])C[C@H](O)N1; ΔAla(Z-3-ureido) = NC(=O)N/C=C(\N)C(=O)O; β3hOrn = NCCC[C@H](N)CC(=O)*; Dap = NC[C@H](N)C(=O)O
Give your call using only these classes: yes (active), no (inactive)

Previously resolved entries follow.
- compound: "CC(O)CN(C)C (configuration not stated)"
  assigned label: "no"
- compound: "O=C(/C=C/c1cccc(F)c1)NC1CC1"
  assigned label: "no"
- compound: "C[C@H](CCC(=O)O)[C@H]1CC[C@H]2[C@@H]3[C@H](O)C[C@@H]4C[C@H](O)CC[C@]4(C)[C@H]3C[C@H](O)[C@]12C"
  assigned label: "no"
- compound: "CC(C)(CO)[C@@H](O)C(=O)NCCCC(=O)O"
  assigned label: "no"

Q. Which result was noted for this compound in the test: NCCC[C@H](N)CC(=O)N[C@H]1CNC(=O)[C@H]([C@H]2C[C@H](O)NC(N)=N2)NC(=O)/C(=C/NC(N)=O)NC(=O)[C@H](CO)NC(=O)[C@H](CO)NC1=O (β3hOrn-[Dap]SS[ΔAla(Z-3-ureido)][X5]; lactam 1-C)
A. no

Q. Which result was noted for this compound in the test: CC1=CC(=O)NS(=O)(=O)O1
A. no

* * *

experimental protocol: Cell Viability - LYMP2-018 (AID 985);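 further: compound exposure lasted 24 hr at 37 °C; plate controls were DMSO only for no effect and tetraoctylammonium bromide at 92 µM for full effect; nearly all actives have a fitted effect of over 50% in size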
study conditions: LYMP2-018 lymphoblastoid cells, viability (qHTS); series mostly up to 92.2 µM
Records with an inconclusive call do not appear. Activity calls are given as the source filed them. The call rests on the fitted dose curve; in most records, active means well fitted cell-killing curve with a large enough effect; inconclusive means small, poorly fitted or top-dose-only effect; inactive means flat fitted curve, though single readings scatter.
Give your call using only these classes: label 1 for active, label 0 for inactive

Previously resolved entries follow.
- molecule: "C[C@H](CCC(=O)O)[C@H]1CC[C@H]2[C@@H]3[C@H](O)C[C@@H]4C[C@H](O)CC[C@]4(C)[C@H]3C[C@H](O)[C@]12C"
  assigned label: "label 0"
- molecule: "OB(O)O"
  assigned label: "label 0"
- molecule: "CC(C)(C)CC(C)(C)c1ccc(OCCO)cc1"
  assigned label: "label 0"
- molecule: "CCCCO"
  assigned label: "label 0"
- molecule: "CCCCC"
  assigned label: "label 0"

Q. Which result was noted for this molecule in the test: CO
A. label 0

Q. Which result was noted for this molecule in the test: C/C=C/C=C/C(=O)O
A. label 0

Q. Which result was noted for this molecule in the test: OCl
A. label 0

* * *

Tested on: TAB109
experimental protocol: qHTS profiling for inhibitors of Plasmodium falciparum proliferation (AID 504749); further: nearly all actives have a fitted effect of over 60% in size
study conditions: P. falciparum in erythrocytes, SYBR Green DNA, 72 h; series mostly up to 28.7 µM
Records with an inconclusive call do not appear. Active and inactive are the calls of the source. Calls come from the whole dose curve; as a rule, active = well fitted inhibition curve with a large enough effect; inconclusive = small, poorly fitted or top-dose-only effect; inactive = flat fitted curve, though single readings scatter.
Give your call using only these classes: Yes = active, No = inactive

- compound: "CCCCCCCCCCCCCCCCOCCOCCOCCOCCOCCOCCOCCOCCOCCOCCOCCOCCOCCOCCOCCOCCOCCOCCOCCOCCO"
  assay target: "TAB109"
  assigned label: "Yes"
- compound: "NC(=O)Oc1ccc(Cc2ccccc2)cc1"
  assay target: "TAB109"
  assigned label: "No"
- compound: "CC1=CC(=O)NS(=O)(=O)O1"
  assay target: "TAB109"
  assigned label: "No"

Q. Which result was noted for this compound in the test: S=C=Nc1ccc(N=C=S)cc1
A. No

Q. Which result was noted for this compound in the test: O=C(NNCS(=O)(=O)O)c1ccncc1
A. No

Q. Which result was noted for this compound in the test: Cc1ncc[nH]1
A. No

Q. Which result was noted for this compound in the test: C#C[C@]1(O)CC[C@@H]2[C@H]3CCC4=CC(=O)CC[C@H]4[C@H]3C(=C)C[C@@]21CC
A. No

Q. Which result was noted for this compound in the test: Cc1ccc(S(=O)(=O)NCl)cc1
A. No

Q. Which result was noted for this compound in the test: COc1ccccc1N1CCN(CCCC(=O)c2ccc(F)cc2)CC1
A. No

Q. Which result was noted for this compound in the test: C[Si](C)(C)O[Si](C)(C)C
A. No

Q. Which result was noted for this compound in the test: CC(C)[C@@H](N)C(=O)O
A. No

Q. Which result was noted for this compound in the test: CCCCO
A. No

Q. Which result was noted for this compound in the test: C=CCCCCCCCCC(=O)OC
A. No

Q. Which result was noted for this compound in the test: CC/C(=C(/CC)c1ccc(OP(=O)(O)O)cc1)c1ccc(OP(=O)(O)O)cc1
A. No

Q. Which result was noted for this compound in the test: O=C1c2ccccc2C(=O)C1c1ccc(Cl)cc1
A. No

Q. Which result was noted for this compound in the test: CC(=O)Nc1ccc(OC(=O)c2ccccc2O)cc1
A. No

Q. Which result was noted for this compound in the test: OC[C@H]1O[C@@H]2O[C@H]3[C@H](O)[C@@H](O)[C@@H](O[C@H]4[C@H](O)[C@@H](O)[C@@H](O[C@H]5[C@H](O)[C@@H](O)[C@@H](O[C@H]6[C@H](O)[C@@H](O)[C@@H](O[C@H]7[C@H](O)[C@@H](O)[C@@H](O[C@H]1[C@H](O)[C@H]2O)O[C@@H]7CO)O[C@@H]6CO)O[C@@H]5CO)O[C@@H]4CO)O[C@@H]3CO
A. No

Q. Which result was noted for this compound in the test: O=C(O)CCC/C=C\C[C@@H]1[C@@H](/C=C/[C@@H](O)COc2cccc(Cl)c2)[C@H](O)C[C@@H]1O
A. No

* * *

Tested on: CP237
experimental protocol: qHTS profiling for inhibitors of Plasmodium falciparum proliferation (AID 504749); further: nearly all actives have a fitted effect of over 60% in size
study conditions: P. falciparum in erythrocytes, SYBR Green DNA, 72 h; series mostly up to 28.7 µM
Inconclusive results are not listed. The source made the active and inactive calls. Calls come from the whole dose curve; as a rule, active = well fitted inhibition curve with a large enough effect; inconclusive = small, poorly fitted or top-dose-only effect; inactive = flat fitted curve, though single readings scatter.
Give your call using only these classes: y (active), n (inactive)

- compound: "CNC(=O)C[C@@H](N)C(=O)N[C@@H](C(=O)N[C@@H]1C(=O)N2[C@@H]1SC(C)(C)[C@@H]2C(=O)O)c1ccc(O)cc1"
  assay target: "CP237"
  assigned label: "n"
- compound: "O=P(O)(O)CP(=O)(O)O"
  assay target: "CP237"
  assigned label: "n"
- compound: "CC12CCC(C1)C(C)(C)C2=O (stereo not drawn)"
  assay target: "CP237"
  assigned label: "n"
- compound: "CC(=O)[O][Al][O]C(C)=O"
  assay target: "CP237"
  assigned label: "n"
- compound: "NC(=S)N=Nc1ccc(NN=C(N)N)cc1"
  assay target: "CP237"
  assigned label: "y"

Q. Which result was noted for this compound in the test: CC(=O)Nc1c(I)c(C(=O)O)c(I)c(N(C)C(C)=O)c1I
A. n

Q. Which result was noted for this compound in the test: ClC(Cl)Cl
A. n

Q. Which result was noted for this compound in the test: CCOC(=O)Cc1ccc(-c2ccccc2)cc1
A. n

Q. Which result was noted for this compound in the test: CN[C@@H]1[C@H](O[C@H]2[C@H](O[C@H]3[C@H](O)[C@@H](O)[C@H](N=C(N)N)[C@@H](O)[C@@H]3N=C(N)N)O[C@@H](C)[C@]2(O)C=O)O[C@@H](CO)[C@H](O)[C@H]1O
A. n

* * *

Test system: 3D7
experimental protocol: qHTS profiling for inhibitors of Plasmodium falciparum proliferation (AID 504749); further: nearly all actives have a fitted effect of over 60% in size
study conditions: P. falciparum in erythrocytes, SYBR Green DNA, 72 h; series mostly up to 28.7 µM
Results filed as inconclusive are left out. Activity calls are given as the source filed them. Calls come from the whole dose curve; as a rule, active = well fitted inhibition curve with a large enough effect; inconclusive = small, poorly fitted or top-dose-only effect; inactive = flat fitted curve, though single readings scatter.
reported metric: outcome

- structure as smiles: "NC(=O)[C@H]1O[C@@H](O)[C@H](O)[C@@H](O)[C@@H]1O"
  val: "inactive"
- structure as smiles: "O=C(O)CCC/C=C\\C[C@@H]1[C@@H](/C=C/[C@@H](O)COc2cccc(Cl)c2)[C@H](O)C[C@@H]1O"
  val: "inactive"
- structure as smiles: "NC(=O)CC[C@@H]1NC(=O)[C@H](Cc2ccccc2)NC(=O)[C@H](Cc2ccc(O)cc2)NC(=O)[C@@H](N)CSSC[C@@H](C(=O)N2CCC[C@H]2C(=O)N[C@@H](CCCN=C(N)N)C(=O)NCC(N)=O)NC(=O)[C@H](CC(N)=O)NC1=O"
  val: "inactive"
